assay: Oral pharmacokinetics and bioavailability in rats; type: in vivo; conditions: female, Sprague Dawley, rat, plasma, po, 10 mg/kg, Tmax, female rats, 10 mg/kg PO, GeoMean
value.kind: Tmax (h)

mol=C[C@]12CC[C@H](n3ccnc3)CC1=CC[C@@H]1[C@@H]2CC[C@]2(C)C(n3cnc4ccccc43)=CC[C@@H]12 value_kind=Tmax obs_value=6

----------
assay: Intravenous pharmacokinetics in rats; assay type: in vivo; conditions: female, Sprague Dawley, rat, plasma, iv, 1 mg/kg, C0, female rats, 1 mg/kg IV, individual rat
value.kind: C0 (µg/mL)

compound="C[C@]12CC[C@H](n3ccnc3)CC1=CC[C@@H]1[C@@H]2CC[C@]2(C)C(n3cnc4ccccc43)=CC[C@@H]12 [Compound 2]" units_text=µg/mL obs_value=0.259

----------
assay: Oral pharmacokinetics and bioavailability in rats; format: in vivo; conditions: male, Sprague Dawley, rat, plasma, po, 50 mg/kg, Tmax, male rats, 50 mg/kg PO, GeoMean
value.kind: Tmax (h)

compound="C[C@]12CC[C@H](n3ccnc3)CC1=CC[C@@H]1[C@@H]2CC[C@]2(C)C(n3cnc4ccccc43)=CC[C@@H]12 [Compound 2]" obs_value=9.52

----------
assay: Oral pharmacokinetics and bioavailability in rats; format: in vivo; conditions: male, Sprague Dawley, rat, plasma, po, 50 mg/kg, CL/F, male rats, 50 mg/kg PO, GeoMean
value.kind: CL/F (mL/min/kg)

mol=C[C@]12CC[C@H](n3ccnc3)CC1=CC[C@@H]1[C@@H]2CC[C@]2(C)C(n3cnc4ccccc43)=CC[C@@H]12 obs_value=1.71

----------
assay: Oral pharmacokinetics and bioavailability in rats; type: in vivo; details: male, Sprague Dawley, rat, plasma, po, 10 mg/kg, AUCinf, male rats, 10 mg/kg PO, GeoMean
value.kind: AUC(0-inf) (ng·h/mL)

mol=C[C@]12CC[C@H](n3ccnc3)CC1=CC[C@@H]1[C@@H]2CC[C@]2(C)C(n3cnc4ccccc43)=CC[C@@H]12 value_kind=AUC(0-inf) units_text=ng·h/mL obs_value=9380

----------
assay: Oral pharmacokinetics and bioavailability in rats; assay type: in vivo; settings: male, Sprague Dawley, rat, plasma, po, 50 mg/kg, Cmax, male rats, 50 mg/kg PO, GeoMean
value.kind: Cmax

molecule="C[C@]12CC[C@H](n3ccnc3)CC1=CC[C@@H]1[C@@H]2CC[C@]2(C)C(n3cnc4ccccc43)=CC[C@@H]12 [Compound 2]" obs_value="2730 ng/mL"

----------
test: Intravenous pharmacokinetics in rats; assay type: in vivo; conditions: female, Sprague Dawley, rat, plasma, iv, 1 mg/kg, CL, female rats, 1 mg/kg IV, GeoMean
value.kind: clearance

mol=C[C@]12CC[C@H](n3ccnc3)CC1=CC[C@@H]1[C@@H]2CC[C@]2(C)C(n3cnc4ccccc43)=CC[C@@H]12 obs_value="4.92 mL/min/kg"

----------
assay: Oral pharmacokinetics and bioavailability in rats; format: in vivo; settings: both, Sprague Dawley, rat, plasma, oral
value.kind: bioavailability

mol=C[C@]12CC[C@H](n3ccnc3)CC1=CC[C@@H]1[C@@H]2CC[C@]2(C)C(n3cnc4ccccc43)=CC[C@@H]12 obs_value="32 to 47%"

----------
experiment: Oral pharmacokinetics and bioavailability in rats; type: in vivo; conditions: male, Sprague Dawley, rat, plasma, po, 10 mg/kg, Cmax, male rats, 10 mg/kg PO, GeoMean
value.kind: Cmax

mol=C[C@]12CC[C@H](n3ccnc3)CC1=CC[C@@H]1[C@@H]2CC[C@]2(C)C(n3cnc4ccccc43)=CC[C@@H]12 obs_value="613 ng/mL"
